Would you kindly list pKd for each of these binders?
# EXPERIMENTAL_TARGET: SARS-CoV-2 spike glycoprotein RBD domain (SARS-CoV-2, UniProt P0DTC2 SEQ:1-223)
# TEST_NAME: SPR; SB1T, no dextran, 25 C
Answers are plain numbers, as −log10 of the molar value.

// known answers, use as guide
BINDER	pKd
Binding nucleic acid molecule 8 (ssDNA, NG7 (modified thymine, formula 1) at all T 3' of the first 11 nt) DNA: CCACTGAAATCCGTGCCTAATCTCACCCCACGGAATTCATGGAAAAAAAAAAAAAAAAAAAA	8.70
Control nucleic acid molecule (Song et al. 2020 aptamer) (ssDNA) DNA: CAGCACCGACCTTGTGCTTTGGGAGTGCTGGTCCAAGGGCGTTAATGGACAAAAAAAAAAAAAAAAAAAAA	4.19
Binding nucleic acid molecule 6 (ssDNA, NG7 (modified thymine, formula 1) at all T 3' of the first 23 nt) DNA: GGTTTAGCCCTCGACTCCAAATGACATGAGCCAGGTGCATCTTGAACGTCATAGATACCGTTGATGTGCTGCCAATACAAAAAAAAAAAAAAAAAAAA	8.51
Binding nucleic acid molecule 9 (ssDNA, NG7 (modified thymine, formula 1) at all T 3' of the first 15 nt) DNA: TCCGCCACTGAAATCTAATCTCACATTGTAAGCAAAGGAGAATAAAAAAAAAAAAAAAAAAAAAA	8.68

Please give pKd, item by item, for the list that follows.
1. Binding nucleic acid molecule 12 (ssDNA, NG7 (modified thymine, formula 1) at all T 3' of the first 14 nt) DNA: TGACATGAGCCAGGTGCATCTTGAACGTCATAGATACCGTTGATGTGCTGAAAAAAAAAAAAAAAAAAAA
2. Binding nucleic acid molecule 2 (ssDNA, NG7 (modified thymine, formula 1) at all T 3' of the first 23 nt) DNA: GGTATGTCTCCGCCACTGAAATCTAATCTCACATTGTAAGCAAAGGAGAATAAGCAAAGCCGAGGTGTCTTGTATTCAAAAAAAAAAAAAAAAAAAA

Result block:
1. 8.62
2. 8.77

Source listed as patent US20240002860.
